# TARGET UNDER TEST: T1, human CD70, recombinant, N-terminally biotinylated (residues 39-193) (human, UniProt P32970 39-193, N-terminal biotin)
# T1 construct: range 39-193; the same entry is used there; also called biotinylated human CD70; CD70 biotin
# T1 sequence (looked up): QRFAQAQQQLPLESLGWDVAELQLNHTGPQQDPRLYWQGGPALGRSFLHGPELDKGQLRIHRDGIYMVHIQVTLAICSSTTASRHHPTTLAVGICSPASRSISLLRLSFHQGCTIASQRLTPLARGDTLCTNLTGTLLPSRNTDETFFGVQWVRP
# ASSAY: SPR
# log10(Kd) per entry
All values: log10 Kd [µM].

Reference set, count: 3
BINDER: 14-TC4-XIII-A01 (scFv, His-tagged) scFv: QVQLVQSGAEVKKPGASVKVSCKASGYTFTGYYMNWVRQAPGQGLEWMAWINPNTGDTNYAQKFQGRVTMTRDTSINTAYIELSRLTSDDTAVYYCARVGDYYDRSGYYRHDAFDIWGQGTMVTVSSGGSGGSGGSGGSSSELTQDPAVSVALGQTVRITCQGDSLRSYYASWYQQKPGQAPVLVIYGKNNRPSGIPDRFSGSSSGNTASLTITGAQAMDEADYYCQAWDSSTGVVFGGGTKVTVL
OBSERVED RESULT: 0.45
--
BINDER: 4-TC4-I-G08 (scFv, His-tagged) scFv: QVQLVQSGGGVVQPGRSLRLSCAASGFTFSSYAMHWVRQAPGKGLEWVAVISYDGSNKYYADSVKGRFTISRDNAKNSLYLQMNSLRDEDTAVYYCARDESFDYGVDVWGKGTTVTVSSGGSGGSGGSGGSSSELTQDPAVSVALGQTVRITCQGDSLRSYYASWYQQKPGQAPVLVIYGKNNRPSGIPDRFSGSSSGNTASLTITGAQAEDEADYYCNSRDSSGNHLVVFGGGTKLTVL
OBSERVED RESULT: 0.15
--
BINDER: 59-TC4-VII-F02 (scFv, His-tagged) scFv: QLQLQESGPGLVKPSGTLSLTCAVSGGSISSSNWWSWVRQPPGKGLEWIGEIYHSGSTNYNPSLKSRVTISVDKSKNQFSLKLSSVTAADTAVYYCAGPGPDPNDAFDIWGQGTMVTVSSGGSGGSGGSGGSSSELTQDPAVSVALGQTVRITCQGDSLRSYYASWYQQLPGTAPKLLIYQDSKRPSGIPERFSGSNSGNTATLTISGTQAMDEADYYCQAWDSSTAVFGGGTKLTVL
OBSERVED RESULT: -1.00

Incoming: Find the recorded log10(Kd) belonging to 37-TC7-VII-D05 (scFv, His-tagged) scFv: QMQLVQSGGGVVQPGRSLRLSCAASGFTFSSYAMHWVRQAPGKGLEWVAVISYDGSNKYYADSVKGRFTISRDNSKNTLYLQMNSLRAEDTAVYYCARDALWDTATFDYWGQGTLVTVSSGGSGGSGGSGGSSSELTQDPAVSVALGQTVRITCQGDSLRSYYASWYQQKPGQAPVLVIYGKNNRPSGIPDRFSGSSSGNTASLTITGAQAEDEADYYCNSRDSSGNPWVFGGGTKLTVL and report it.
Outgoing: 0.75

Incoming: Find the recorded log10(Kd) belonging to 53-TC7-VI-B06 (scFv, His-tagged) scFv: EVQLLESGGGVVQPGRSLRLSCAASGFTFSSYGMHWVRQAPGKGLEWVAVISYDGSNKYYADSVKGRFTISRDNSKNTLYLQMNSLRAEDTAVYYCAKGELELTNWGQGTLVTVSSGGSGGSGGSGGSSYELTQPPSVSVAPGQTARITCGGNNIGSKSVHWYQQKSGQAPVLVVYDDTDRPSGTPERFSGSNSGNTATLTISGTQAMDEADYYCQAWDSSTAVFGTGTKVTVL and report it.
Outgoing: -0.63
